Values were extracted from paper PMC5673977.

Each entry below carries its reported MIC.
System: C. albicans SC5314
Format: cell-based, Candida albicans
measurement-setup: SC 5314; YNB + L-Gln (0.3 g L^-1) pH 5.0
Where a SMILES comes first, the peptide text is derived from it. [ ]: non-standard residue; d: D form. The star is where a group is joined. Fumaryl(OMe) = COC(=O)/C=C/C(=O)*; Dap = NC[C@H](N)C(=O)O
A number alone suffices; assume µg/mL.

Reference set, count: 3
COC(=O)/C=C/C(=O)NC[C@H](N)C(=O)N[C@@H](CCCNC(=N)N)C(=O)N[C@@H](CCCCN)C(=O)N[C@@H](CCCCN)C(=O)N[C@@H](Cc1c[nH]c2ccccc12)C(=O)N[C@@H](Cc1ccccc1)C(=O)N[C@@H](Cc1c[nH]c2ccccc12)C(=O)O [Peptide F7, FMDP-Arg-Lys-Lys-Trp-Phe-Trp] (H-[Dap](Fumaryl(OMe))RKKWFW-OH; N-terminus and C-terminus assumed) | 8.0
COC(=O)/C=C/C(=O)NC[C@H](N)C(=O)N[C@@H](CCCCN)C(=O)N[C@@H](CCCCN)C(=O)N[C@H](C(=O)N[C@H](C(=O)N[C@@H](Cc1ccccc1)C(=O)N[C@@H](Cc1c[nH]c2ccccc12)C(=O)N[C@H](C(=O)N[C@@H](CCCCN)C(=O)N[C@@H](Cc1ccccc1)C(=O)N[C@@H](CCCCN)C(=O)O)C(C)C)C(C)C)C(C)C [Peptide F11] (H-[Dap](Fumaryl(OMe))KKVVFWVKFK-OH; N-terminus assumed) | 16
COC(=O)/C=C/C(=O)NC[C@H](NC(=O)[C@H](CCSC)NC(=O)[C@@H](NC(=O)[C@@H]1CCCN1C(=O)[C@H](CC(C)C)NC(=O)[C@@H](N)CCCCN)C(C)C)C(=O)O [Peptide F6, Lys-Leu-Pro-Val-Met-FMDP] (H-KLPVM[Dap](Fumaryl(OMe))-OH; N-terminus and C-terminus assumed) | 4.0

Give the measured MIC of CC(C)[C@H](NC(=O)[C@H](Cc1c[nH]c2ccccc12)NC(=O)[C@H](Cc1ccccc1)NC(=O)[C@@H](NC(=O)[C@@H](NC(=O)[C@H](CCCCN)NC(=O)[C@@H](N)CCCCN)C(C)C)C(C)C)C(=O)N[C@@H](CCCCN)C(=O)N[C@@H](Cc1ccccc1)C(=O)N[C@@H](CCCCN)C(=O)O [Peptide P10, Lys-Lys-Val-Val-Phe-Trp-Val-Lys-Phe-Lys] (H-KKVVFWVKFK-OH) .
64

====

Tested on: C. albicans opt2Δ opt3Δ
procedure-summary: Initial peptide uptake rate
Assay type: cell-based, Candida albicans
measurement-setup: 50 mM potassium phosphate buffer (pH 5.0 or 6.5) + 1% glucose, 30°C, 100 μM peptide, TNBS A420, slope 0- to 10-min
Where a SMILES comes first, the peptide text is derived from it.
readout: Uptake rate ± SD

Give the measured Uptake rate ± SD of CC(C)[C@H](NC(=O)[C@H](Cc1c[nH]c2ccccc12)NC(=O)[C@H](Cc1ccccc1)NC(=O)[C@@H](NC(=O)[C@@H](NC(=O)[C@H](CCCCN)NC(=O)[C@@H](N)CCCCN)C(C)C)C(C)C)C(=O)N[C@@H](CCCCN)C(=O)N[C@@H](Cc1ccccc1)C(=O)N[C@@H](CCCCN)C(=O)O [Peptide P10, Lys-Lys-Val-Val-Phe-Trp-Val-Lys-Phe-Lys] (H-KKVVFWVKFK-OH) .
<0.1 nmol min^-1 (mg dry weight)^-1

====

System: C. albicans opt4Δ
procedure-summary: Initial peptide uptake rate
Type: cell-based, Candida albicans
measurement-setup: 50 mM potassium phosphate buffer (pH 5.0 or 6.5) + 1% glucose, 30°C, 100 μM peptide, TNBS A420, slope 0- to 10-min
Where a SMILES comes first, the peptide text is derived from it.
readout: Uptake rate ± SD

Give the measured Uptake rate ± SD of CC(C)[C@H](NC(=O)[C@H](Cc1c[nH]c2ccccc12)NC(=O)[C@H](Cc1ccccc1)NC(=O)[C@@H](NC(=O)[C@@H](NC(=O)[C@H](CCCCN)NC(=O)[C@@H](N)CCCCN)C(C)C)C(C)C)C(=O)N[C@@H](CCCCN)C(=O)N[C@@H](Cc1ccccc1)C(=O)N[C@@H](CCCCN)C(=O)O [Peptide P10, Lys-Lys-Val-Val-Phe-Trp-Val-Lys-Phe-Lys] (H-KKVVFWVKFK-OH) .
<0.1 nmol min^-1 (mg dry weight)^-1

====

Tested on: C. albicans opt1–opt5Δ ptr2Δ ptr22Δ
procedure-summary: Initial peptide uptake rate
Format: cell-based, Candida albicans
measurement-setup: 50 mM potassium phosphate buffer (pH 5.0 or 6.5) + 1% glucose, 30°C, 100 μM peptide, TNBS A420, slope 0- to 10-min
Where a SMILES comes first, the peptide text is derived from it. [ ]: non-standard residue; d: D form. Nva = CCC[C@H](N)C(=O)O
readout: Uptake rate ± SD

CC(C)[C@H](NC(=O)[C@H](Cc1c[nH]c2ccccc12)NC(=O)[C@H](Cc1ccccc1)NC(=O)[C@@H](NC(=O)[C@@H](NC(=O)[C@H](CCCCN)NC(=O)[C@@H](N)CCCCN)C(C)C)C(C)C)C(=O)N[C@@H](CCCCN)C(=O)N[C@@H](Cc1ccccc1)C(=O)N[C@@H](CCCCN)C(=O)O [Peptide P10, Lys-Lys-Val-Val-Phe-Trp-Val-Lys-Phe-Lys] (H-KKVVFWVKFK-OH) | <0.1 nmol min^-1 (mg dry weight)^-1

Give the measured Uptake rate ± SD of CCC[C@H](N)C(=O)N[C@@H](Cc1ccccc1)C(=O)N[C@@H](CCSC)C(=O)N[C@@H](CC(=O)O)C(=O)N1CCC[C@H]1C(=O)O [Peptide F2, Nva-FMDP] (H-[Nva]FMDP-OH) .
<0.1 nmol min^-1 (mg dry weight)^-1

====

Tested on: C. albicans opt1–opt5Δ ptr2Δ ptr22Δ
Assay type: cell-based, Candida albicans
measurement-setup: RPMI-1640 medium, MOPS pH 7.0, CLSI conditions, turbidity 531 nm, at least 80% decrease
Where a SMILES comes first, the peptide text is derived from it.
Each entry below carries its reported MIC.

Query for C. albicans opt1–opt5Δ ptr2Δ ptr22Δ: what MIC does the record show for CC(C)[C@H](NC(=O)[C@H](Cc1c[nH]c2ccccc12)NC(=O)[C@H](Cc1ccccc1)NC(=O)[C@@H](NC(=O)[C@@H](NC(=O)[C@H](CCCCN)NC(=O)[C@@H](N)CCCCN)C(C)C)C(C)C)C(=O)N[C@@H](CCCCN)C(=O)N[C@@H](Cc1ccccc1)C(=O)N[C@@H](CCCCN)C(=O)O [Peptide P10, Lys-Lys-Val-Val-Phe-Trp-Val-Lys-Phe-Lys] (H-KKVVFWVKFK-OH) ?
64 mg/L

====

System: C. albicans opt1–opt5Δ
Assay type: cell-based, Candida albicans
measurement-setup: RPMI-1640 medium, MOPS pH 7.0, CLSI conditions, turbidity 531 nm, at least 80% decrease
Where a SMILES comes first, the peptide text is derived from it. [ ]: non-standard residue; d: D form. The star is where a group is joined. Fumaryl(OMe) = COC(=O)/C=C/C(=O)*; Dap = NC[C@H](N)C(=O)O
Each entry below carries its reported MIC.

Give the measured MIC of CC(C)[C@H](NC(=O)[C@H](Cc1c[nH]c2ccccc12)NC(=O)[C@H](Cc1ccccc1)NC(=O)[C@@H](NC(=O)[C@@H](NC(=O)[C@H](CCCCN)NC(=O)[C@@H](N)CCCCN)C(C)C)C(C)C)C(=O)N[C@@H](CCCCN)C(=O)N[C@@H](Cc1ccccc1)C(=O)N[C@@H](CCCCN)C(=O)O [Peptide P10, Lys-Lys-Val-Val-Phe-Trp-Val-Lys-Phe-Lys] (H-KKVVFWVKFK-OH) .
64 µg/mL

Same thing, different compound: COC(=O)/C=C/C(=O)NC[C@H](N)C(=O)N[C@@H](CCCCN)C(=O)N[C@@H](CCCCN)C(=O)N[C@H](C(=O)N[C@H](C(=O)N[C@@H](Cc1ccccc1)C(=O)N[C@@H](Cc1c[nH]c2ccccc12)C(=O)N[C@H](C(=O)N[C@@H](CCCCN)C(=O)N[C@@H](Cc1ccccc1)C(=O)N[C@@H](CCCCN)C(=O)O)C(C)C)C(C)C)C(C)C [Peptide F11] (H-[Dap](Fumaryl(OMe))KKVVFWVKFK-OH; N-terminus assumed)
>128 µg/mL

Same thing, different compound: COC(=O)/C=C/C(=O)NC[C@H](N)C(=O)N[C@@H](CCCNC(=N)N)C(=O)N[C@@H](CCCCN)C(=O)N[C@@H](CCCCN)C(=O)N[C@@H](Cc1c[nH]c2ccccc12)C(=O)N[C@@H](Cc1ccccc1)C(=O)N[C@@H](Cc1c[nH]c2ccccc12)C(=O)O [Peptide F7, FMDP-Arg-Lys-Lys-Trp-Phe-Trp] (H-[Dap](Fumaryl(OMe))RKKWFW-OH; N-terminus and C-terminus assumed)
>128 µg/mL

Same thing, different compound: COC(=O)/C=C/C(=O)NC[C@H](NC(=O)[C@H](CCSC)NC(=O)[C@@H](NC(=O)[C@@H]1CCCN1C(=O)[C@H](CC(C)C)NC(=O)[C@@H](N)CCCCN)C(C)C)C(=O)O [Peptide F6, Lys-Leu-Pro-Val-Met-FMDP] (H-KLPVM[Dap](Fumaryl(OMe))-OH; N-terminus and C-terminus assumed)
>128 µg/mL
